This collection of values is drawn from patent US20230227427A1.

Molecular target: human recombinant IL-17A (Homo sapiens)
Construct: purchased R&D Systems 7955-IL/CF
Experiment: IL-17A AlphaLISA assay (block binding of IL-17A to its receptor IL-17RA)
Conditions: compounds pre-incubated with the IL-17A for 30 min (indicated by * in Table A); read-out: AlphaLISA pIC50 (converted)
reported property: IC50 (nM)

Observe how each entry below is paired with its result.
entry smiles	IC50 / nM
CCc1nocc1C(=O)N[C@H](C(=O)Nc1ccc(-c2c(C)noc2C)nc1)[C@H]1CC[C@H](C)CC1	79.4
Cc1nocc1C(=O)N[C@H](C(=O)Nc1ccc(-c2c(C)nnn2C)cn1)[C@H]1CC[C@H](C)CC1	200
Cc1noc(C)c1-c1ccc(NC(=O)[C@@H](NC(=O)c2ccc3n2CCNC3)C2CCCCC2)nc1	316

P: COCc1noc(C)c1-c1ccc(NC(=O)[C@@H](NC(=O)c2ccnn2C)[C@H]2CC[C@H](C)CC2)nc1
Q: Cc1nonc1C(=O)N[C@H](C(=O)Nc1ccc(-c2c(C)noc2C)cn1)C1CCCCCC1
R: CCc1nocc1C(=O)N[C@H](C(=O)Nc1ccc(-c2c(C)n[nH]c2C)nc1)C1CCCCCC1
S: Cc1noc(C)c1-c1ccc(NC(=O)[C@@H](NC(=O)c2ccnn2C)C2CCCCCC2)nc1
Exercise: List items by IC50 in falling order. I would appreciate it if you listed the labels in the requested order.
Solution: P, Q, S, R
(P: 398 nM, Q: 251 nM, S: 126 nM, R: 63.1 nM)

###

Biological target: human recombinant IL-17A (Homo sapiens, UniProt Q16552)
Construct: purchased R&D Systems 7955-IL/CF
Sequence (Q16552 24-155): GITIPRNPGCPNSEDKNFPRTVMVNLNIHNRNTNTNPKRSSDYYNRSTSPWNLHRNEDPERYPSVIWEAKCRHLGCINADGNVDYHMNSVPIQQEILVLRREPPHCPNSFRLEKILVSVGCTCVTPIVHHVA
Assay: IL-17A AlphaLISA assay (block binding of IL-17A to its receptor IL-17RA)
Conditions: compounds pre-incubated with the IL-17A for 30 min (indicated by * in Table A); read-out: AlphaLISA pIC50 (converted)
reported property: IC50 (nM)

molecule	IC50, nM
Cc1noc(C)c1-c1ccc(NC(=O)[C@@H](NC(=O)c2ccnn2C(C)C)C2CCCCCC2)nc1 [Example 123]	39.8

P: Cc1n[nH]c(C)c1-c1ccc(NC(=O)[C@@H](NC(=O)c2ccnn2C)C2CCCCC2)cn1 [Example 207]
Q: CCc1nocc1C(=O)N[C@H](C(=O)Nc1ccc(-c2c(C)cnn2C)cn1)C1CCC(F)(F)CC1 [Example 144]
Exercise: Given P and given Q , which shows the smaller recorded IC50? Mark your answer with the label of the selected entry.
Solution: P
(P: 501 nM, Q: 794 nM)

###

Target: human recombinant IL-17A (Homo sapiens, UniProt Q16552)
Construct: purchased R&D Systems 7955-IL/CF
Sequence (Q16552 24-155): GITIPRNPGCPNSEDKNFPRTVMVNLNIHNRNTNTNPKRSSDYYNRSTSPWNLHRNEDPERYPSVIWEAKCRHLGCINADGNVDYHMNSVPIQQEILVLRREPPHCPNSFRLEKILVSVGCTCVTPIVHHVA
Experiment: IL-17A AlphaLISA assay (block binding of IL-17A to its receptor IL-17RA)
Conditions: compounds pre-incubated with the IL-17A for 24 h at room temperature; read-out: AlphaLISA pIC50 (converted)
Experimental: The ability of the compounds to block binding of IL-17A to its receptor, IL-17RA, was analysed in a competition assay using AlphaLISA technology (Perkin Elmer). […] The luminescence signal was measured using an Enspire plate reader (Perkin Elmer) with excitation at 680 nm and emission at 615 nm. Data were analysed using GraphPad Prism and fitted to a 4-parameter logistic equation. […]
reported property: IC50 (nM)

entry smiles	recorded number
Cn1nccc1C(=O)N[C@H](C(=O)Nc1ccc(-c2ccncc2F)cc1)C(c1ccccc1)c1ccccc1	79.4
Cn1nccc1C(=O)N[C@H](C(=O)Nc1ccc(-c2ccnc3c2CCN3)cc1)C(c1ccccc1)c1ccccc1	25.1
Cc1noc(C)c1-c1ccc(NC(=O)[C@@H](NC(=O)c2ccnn2C)[C@H]2CC[C@H](C)CC2)nc1	79.4

1: CCn1nccc1C(=O)N[C@H](C(=O)Nc1ccc(-c2c(C)cncc2C)cn1)[C@H]1CC[C@H](C)CC1
2: COc1c[n+]([O-])ccc1-c1ccc(NC(=O)[C@@H](NC(=O)c2ccnn2C)C(c2ccccc2)c2ccccc2)cc1
Exercise: Of the two listed items, which has the higher IC50? First: 1 Second: 2 Mark your answer with the label of the selected entry.
Solution: 1

P: Cn1nccc1C(=O)N[C@H](C(=O)Nc1ccc(-c2c[nH]c(=O)c3[nH]ccc23)cc1)C(c1ccccc1)c1ccccc1
Q: Cn1nccc1C(=O)N[C@H](C(=O)Nc1ccc(-c2cnc(=O)n(C)c2)c(F)c1)C(c1ccccc1)c1ccccc1
Exercise: Given P and given Q , which shows the smaller recorded IC50? Mark your answer with the label of the selected entry.
Solution: P
(P: 12.6 nM, Q: 158 nM)

1: Cn1nccc1C(=O)N[C@H](C(=O)Nc1ccc(-c2c[nH]c(=O)c3[nH]cnc23)c(F)c1)C(c1ccccc1)c1ccccc1
2: Cn1nccc1C(=O)N[C@H](C(=O)Nc1ccc(-c2cccc(=O)[nH]2)c(F)c1)C(c1ccccc1)c1ccccc1
Exercise: Of the two listed items, which has the higher IC50? First: 1 Second: 2 Mark your answer with the label of the selected entry.
Solution: 2
(2: 126 nM, 1: 79.4 nM)

###

Target: human recombinant IL-17A (Homo sapiens, UniProt Q16552)
Construct: purchased R&D Systems 7955-IL/CF
Assay: IL-17A AlphaLISA assay (block binding of IL-17A to its receptor IL-17RA)
Details: compounds pre-incubated with the IL-17A for 30 min (indicated by * in Table A); read-out: AlphaLISA pIC50 (converted)
reported property: IC50 (nM)

Observe how each entry below is paired with its result.
compound	system under test	unit of measurement	IC50
CCn1nccc1C(=O)N[C@H](C(=O)Nc1ccc(-c2c(Cl)cnn2C)cn1)[C@H]1CC[C@H](C)CC1	human recombinant IL-17A (Homo sapiens, UniProt Q16552)	nM	100
CCc1nocc1C(=O)N[C@H](C(=O)Nc1ccc(-c2c(Cl)cnn2C)cn1)C1CCCCCC1	human recombinant IL-17A (Homo sapiens, UniProt Q16552)	nM	31.6
Cc1cnn(C)c1-c1ccc(NC(=O)[C@@H](NC(=O)c2conc2C)C2CCCCCC2)nc1	human recombinant IL-17A (Homo sapiens, UniProt Q16552)	nM	63.1
Cc1cnn(C)c1-c1ncc(NC(=O)[C@@H](NC(=O)c2ccnn2C)[C@H]2CC[C@H](C)CC2)cc1F	human recombinant IL-17A (Homo sapiens, UniProt Q16552)	nM	501
Cc1nnn(C2CC2)c1-c1ccc(NC(=O)[C@@H](NC(=O)c2ccnn2C)C2CCCCCC2)nc1	human recombinant IL-17A (Homo sapiens, UniProt Q16552)	nM	200

a: Cc1cnn(C)c1-c1ccc(NC(=O)[C@@H](NC(=O)c2conc2C)C2CCCCC2)nc1
b: Cc1cc(-c2ccc(NC(=O)[C@@H](NC(=O)c3ccnn3C)[C@H]3CC[C@H](C)CC3)nc2)c(C)cn1
Exercise: Given a and given b , which shows the smaller recorded IC50? Mark your answer with the label of the selected entry.
Solution: a
(a: 158 nM, b: 398 nM)

###

Target: human recombinant IL-17A (Homo sapiens, UniProt Q16552)
Construct: purchased R&D Systems 7955-IL/CF
Sequence (Q16552 24-155): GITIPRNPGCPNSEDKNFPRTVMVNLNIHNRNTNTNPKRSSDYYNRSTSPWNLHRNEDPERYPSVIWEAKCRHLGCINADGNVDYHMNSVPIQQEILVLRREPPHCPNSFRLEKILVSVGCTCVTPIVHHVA
Experiment: IL-17A AlphaLISA assay (block binding of IL-17A to its receptor IL-17RA)
Conditions: compounds pre-incubated with the IL-17A for 24 h at room temperature; read-out: AlphaLISA pIC50 (converted)
Procedure: The ability of the compounds to block binding of IL-17A to its receptor, IL-17RA, was analysed in a competition assay using AlphaLISA technology (Perkin Elmer). […] The luminescence signal was measured using an Enspire plate reader (Perkin Elmer) with excitation at 680 nm and emission at 615 nm. Data were analysed using GraphPad Prism and fitted to a 4-parameter logistic equation. […]
reported property: IC50 (µM)

Observe how each entry below is paired with its result.
compound	unit of measurement	recorded number
Cc1cncc(C)c1-c1ccc(NC(=O)[C@@H](NC(=O)c2ccnn2C)C(c2ccccc2)c2ccccc2)nc1 [Example 73]	µM	0.0251
Cc1cc(=O)[nH]cc1-c1ccc(NC(=O)[C@@H](NC(=O)c2ccnn2C)C(c2ccccc2)c2ccccc2)cc1 [Example 50]	µM	0.0398
Cc1n[nH]c(C)c1-c1ccc(NC(=O)[C@@H](NC(=O)c2ccnn2C)[C@H]2CC[C@H](C)CC2)cc1 [Example 84]	µM	0.0316

I: COc1cnccc1-c1ccc(NC(=O)[C@@H](NC(=O)c2ccnn2C)C(c2ccccc2)c2ccccc2)cc1C [Example 20]
II: Cc1c(-c2ccc(NC(=O)[C@@H](NC(=O)c3ccnn3C)[C@H]3CC[C@H](C)CC3)cc2)ccc(=O)n1C [Example 33]
Exercise: Given I and given II , which shows the smaller recorded IC50? Mark your answer with the label of the selected entry.
Solution: I
